Provenance of the data: patent US5736294A

Molecular target: T1, HIV-1 Tat 37-mer peptide (tat37) (Human immunodeficiency virus 1, UniProt P69698 SEQ:1-37)
T1 chain: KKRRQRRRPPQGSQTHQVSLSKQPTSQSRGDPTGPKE
Assay: EMSA; 1:1 KD; 2-3:1 KD 8200 nM; Table 4 gives 60 nM; 4 C
Conditions: protein: synthetic; tags: chemically synthesized peptide, RP HPLC purified (UCSF Biotechnology Resource Core); label: 32P; hairpin, stem-bulge-loop
metric: Kd (nM)
One number for each entry, in nM.

Using the record for GCCAGAUCUGAGCCUGGGAGCUCUCUGGC (ssRNA, 2'-OMe throughout) [2'-OMe deltaTAR #2306 29-mer (16-45 -A17)] , report its Kd.
86.6
